- PROCEDURE_DETAILS: recombinant UMI read abundance after kanamycin selection (control-corrected) (log10(CPM+1)); higher = more efficient recombination; extreme values may be limits of the assay; sequences stand for … in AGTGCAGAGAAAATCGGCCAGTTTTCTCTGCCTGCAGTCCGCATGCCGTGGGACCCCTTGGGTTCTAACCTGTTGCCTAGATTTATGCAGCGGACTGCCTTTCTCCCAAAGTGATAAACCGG…AGGTTGGTTTCACT; site = the 11-nt donor
Threshold rule: recombinant UMI read abundance (log10) greater than or equal to 0.4 is rule met; below that, rule not met.

>>> print(df.to_string())
                              sequence_code  assigned_class
0  TAGAATTCATGGACCGGTTTTCCCGGTAATCCGTATTTGCA (site TAGAATACTTG)        rule met
1  ATCTAATCATGGACCGGTTTTCCCGGTAATCCGTATTTGGA (site ATCTAATCTTC)        rule met
2  TATTGGGCATGGACCGGTTTTCCCGGTAATCCGTATTTGTG (site TATTCGGCTCA)    rule not met
3  GCAAAAACATGGACCGGTTTTCCCGGTAATCCGTATTTGCT (site GCTAAAACTAG)    rule not met
4  ACCATATCATGGACCGGTTTTCCCGGTAATCCGTATTTGTC (site TCCATATCTGA)    rule not met
5  AGAAGGGCATGGACCGGTTTTCCCGGTAATCCGTATTTGAG (site AGAAGGGCTCT)        rule met
6  CGCCGTACATGGACCGGTTTTCCCGGTAATCCGTATTTGCG (site CGCCGTACTCG)        rule met
7  ATAAAATCATGGACCGGTTTTCCCGGTAATCCGTATTTGCC (site ATAAAATCTGG)        rule met
8  AACTATGCATGGACCGGTTTTCCCGGTAATCCGTATTTGGA (site AACTATGCTTC)        rule met
9  CGAGCGCCATGGACCGGTTTTCCCGGTAATCCGTATTTGTG (site CAAGCGCCTCA)    rule not met

API: above_or_equal(metric=recombinant UMI read abundance (log10), cutoff=0.4) for item TGAAAGACATGGACCGGTTTTCCCGGTAATCCGTATTTGCA (site AGGAAGACTTG) rule met

Given ACAAAGCCATGGACCGGTTTTCCCGGTAATCCGTATTTGGC (site ACAAAGCCTGC) , state whether its recombinant UMI read abundance (log10) is at least 0.4. rule not met

Identify whether the reported recombinant UMI read abundance (log10) of the following sequence is 0.4 or greater: TAGAATACATGGACCGGTTTTCCCGGTAATCCGTATTTGCT (site TAGAATACTCG) rule not met

Threshold query (recombinant UMI read abundance (log10) >= 0.4) on GACTAACCATGGACCGGTTTTCCCGGTAATCCGTATTTGGT (site GACAAACCTAC) rule not met

----------
- PROCEDURE_DETAILS: recombinant barcode read abundance after kanamycin selection (control-corrected) (log10(CPM+1)); higher = more efficient recombination; sequences stand for … in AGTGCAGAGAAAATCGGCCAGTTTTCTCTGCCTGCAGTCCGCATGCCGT…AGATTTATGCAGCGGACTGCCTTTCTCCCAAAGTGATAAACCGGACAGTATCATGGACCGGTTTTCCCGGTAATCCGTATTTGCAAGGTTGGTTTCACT; site = the 11-nt target
Measured recombinant barcode read abundance (log10) by item

# recombinant barcode read abundance (log10) lookup, item GTAGGGACTTGGGTTCTAACCTGTTGCCG (site GTAGGGACTCG) 2.47

Report recombinant barcode read abundance (log10) for CGCAAATCTTGGGTTCTAACCTGTTGCCT (site CGTAAATCTAG) please. 0.166

Given the sequence ATGCCATCTTGGGTTCTAACCTGTTGCCT (site ATCCCATCTAG) , what is its reported recombinant barcode read abundance (log10)? 0.885
